Test: Growth inhibition of human melanoma cells after 48 hrs
Assay type: functional
Settings: Melanoma cell, read-out: LC50 (the source's name)
Structures can show the parent of a compound that is named as a salt.
Rule: CC50 below 80 µM gives Condition met, anything at or above gives Condition not met.

COc1cc2c(/C=C3/C(=O)N(C)c4ccccc43)c[nH]c2cc1C: Condition not met
COc1cc2c(/C=C3/C(=O)N(C)c4ccccc43)c(Cl)n(C)c2cc1C: Condition met
COc1cc2c(cc1C)N(C)C(=O)/C2=C/c1c(Cl)[nH]c2ccccc12: Condition met
COc1cc2c(/C=C3/C(=O)Nc4ccc(Br)cc43)c(Cl)[nH]c2cc1C: Condition met

Turning now to a further compound:
In the record for CC[C@]1(O)C[C@H]2CN(CCc3c([nH]c4ccccc34)[C@@](C(=O)OC)(c3cc4c(cc3OC)N(C=O)[C@H]3[C@@](O)(C(=O)OC)[C@H](OC(C)=O)[C@]5(CC)C=CCN6CC[C@]43[C@@H]65)C2)C1 [VINCRISTINE SULFATE] , is CC50 less than 80 µM?
Condition not met
